Assay: Inhibition of PD1 expression in doxycyclin-induced human HEK293-T-REx cells measured by Gaussia luciferase reporter gene method
Assay type: functional, cell-based
observation-type: IC50

Request: Sample `CCOC(C)(C)c1csc(NC(=O)Cc2cn(Cc3ccccc3Cl)c3ccc(Cl)cc23)n1` — what was its IC50?
Response: < 5 µM

---

Assay: Inhibition of VCAMss-Gluc secretion in doxycyclin-induced human Flp-In-T-REx-293 cells measured by Gaussia luciferase reporter gene method
Type: functional, cell-based
Simple rule here: IC50 less than 2 µM is label 1, otherwise label 0.

>>> assigned_category("CC(C)(C)c1csc(NC(=O)Cc2csc3ccc(C#N)cc23)n1")
"label 1"
>>> assigned_category("Cc1cccc2c(CC(=O)Nc3nc(C(C)(C)C)cs3)csc12")
"label 0"
>>> assigned_category("CC(C)(C)c1csc(NC(=O)Cc2cn(Cc3ccc(F)cc3)c3ccccc23)n1")
"label 1"
>>> assigned_category("CC(C)(C)c1csc(NC(=O)c2cc3cc(-c4ccccc4Cl)ccc3s2)n1")
"label 0"
>>> assigned_category("Cc1cc(C(=O)Nc2nc(C(C)(C)C)cs2)cs1")
"label 0"

Request: Strictly below 2 µM in IC50? `CCCC(C)(C)c1csc(NC(=O)Cc2csc3ccc(Cl)cc23)n1`
Response: label 1

Request: What about `Cc1ccc2scc(CC(=O)Nc3nc(C(C)(C)C)cs3)c2c1` ?
Response: label 0

Request: What about `CC(C)(C)c1csc(NC(=O)Cc2csc3ccc(Cl)cc23)n1` ?
Response: label 1

Request: What about `CC(C)(C)c1csc(NC(=O)c2cc3cc(C#N)ccc3s2)n1` ?
Response: label 0

Request: What about `CCC(C)(C)c1csc(NC(=O)Cc2csc3ccc(Cl)cc23)n1` ?
Response: label 1

Request: What about `CC(C)(C)c1csc(NC(=O)Cc2cn(Cc3ccccc3)c3ccc(Cl)cc23)n1` ?
Response: label 1

Request: What about `Cc1ccc2c(CC(=O)Nc3nc(C(C)(C)C)cs3)csc2c1` ?
Response: label 0
